Give LC retention time for every item shown.
# assay notes: RP, Agilent ZORBAX Eclipse Plus C18, 150 × 2.1 mm, 3.5 µm, 40 °C, 0.3 mL/min, estimated dead time 1.1 min; A: water + 0.1% formic acid; B: acetonitrile + 0.1% formic acid; gradient (min/%B) 0/2 1/2 2/20 16.5/98 22/98
# run conditions: stereoisomer not certain

Would you please look over these solved cases?
CCCCCCCCCCC(C(=O)OCCCCCC)[N+](C)(C)Cc1ccccc1 (stereo not given) :: 13.6 min
CC(C)CC(C)(O)C#CC(C)(O)CC(C)C (stereo not given) :: 12.4 min
CCOC(=O)C[P+](c1ccccc1)(c1ccccc1)c1ccccc1 :: 8 min
Nc1nc2c(ncn2CCC(CO)CO)c(=O)[nH]1 :: 2.6 min
COc1ccc2nc(SCc3[nH]cc(C)c(=O)c3C)[nH]c2c1 :: 6.17 min
Cc1cc2nc3[nH]c(=O)[nH]c(=O)c3nc2cc1C :: 7.07 min
O=C(NO)c1ccccc1 :: 4.89 min
CC1(C)SC2C(NC(=O)C(N)c3ccc(O)cc3)C(=O)N2C1C(=O)O (stereo not given) :: 4.71 min
O=C1NC(=O)C(c2ccccc2)(c2ccccc2)N1 :: 9.18 min
CCN(CC)C(=O)C(C)Oc1cccc2ccccc12 (stereo not given) :: 12.6 min

List reported LC retention time for each of these compounds:
1. c1ccc([P+](c2ccccc2)(c2ccccc2)C2CC2)cc1
2. CCCCCCCCCCCCCCCC[N+](C)(C)C
3. CCNc1nc(NC(C)(C)C)nc(S(C)=O)n1 (stereo not given)

1: 7.79 min; 2: 12.8 min; 3: 8.82 min

List reported LC retention time for each of these compounds:
1. CCCCN1C=CC=CC1
2. c1ccc2sc(NC3CCCCC3)nc2c1

1: 4.24 min; 2: 9.08 min

List reported LC retention time for each of these compounds:
1. O=C(O)CC(O)(CC(=O)O)C(=O)O
2. NC(=O)N1c2ccccc2C(O)C(O)c2ccccc21 (stereo not given)
3. CC12CCC3c4ccc(OCc5ccccc5)cc4CCC3C1CC(O)C2O (stereo not given)
4. CNC(=O)ON=C(C)C(C)SC (stereo not given)
5. CCCc1nn(C)c2c(=O)[nH]c(-c3cc(S(=O)(=O)N4CCN(C)CC4)ccc3OCC)nc12
6. CC(C)Cc1ccc(C(C)C(=O)O)cc1 (stereo not given)
7. CCCC[N+](C)(CCCC)CCCC
8. Cc1c(N)c(=O)n(-c2ccccc2)n1C

["2.08 min", "6.66 min", "13.3 min", "7.75 min", "7.28 min", "12.8 min", "7.01 min", "4.78 min"]

List reported LC retention time for each of these compounds:
1. O=C1CC(c2ccc(O)cc2)Oc2cc(O)cc(O)c21 (stereo not given)
2. CC(=O)Nc1ccccc1

1. 9.18 min
2. 6.74 min

* * *

# assay notes: RP, Agilent ZORBAX Eclipse Plus C18, 150 × 2.1 mm, 3.5 µm, 40 °C, 0.3 mL/min, estimated dead time 1.1 min; A: water + 0.1% formic acid; B: acetonitrile + 0.1% formic acid; gradient (min/%B) 0/2 1/2 2/20 16.5/98 22/98
# run conditions: stereoisomer not certain
Give LC retention time for every item shown.
Give bare numbers, in min.

CNC(=C[N+](=O)[O-])NCCSCc1ccc(CN(C)C)o1 :: 4.83

List reported LC retention time for each of these compounds:
1. CNc1c(C)n(C)n(-c2ccccc2)c1=O
2. O=C(c1ccccc1)c1ccccc1O
3. CCc1cccc(C)c1N(C(=O)C(=O)O)C(C)COC (centres undefined)
4. COc1cc(N)nc(OC)n1
5. CSc1nc2ccccc2s1

1. 4.82
2. 13
3. 9.91
4. 4.66
5. 12.2

List reported LC retention time for each of these compounds:
1. CC(C)c1ccc(NC(=O)N(C)C)cc1
2. CCNc1nc(NC(C)(C)C)nc(SC)n1
3. COc1cc(Cc2cnc(N)nc2N)cc(OC)c1O
4. CC(O)C(=O)Nc1ccccc1 (centres undefined)
5. O=C(C[P+](c1ccccc1)(c1ccccc1)c1ccccc1)OCc1ccccc1
6. CCCCCCCC[N+](C)(C)Cc1ccccc1
7. Nc1nc(=S)c2[nH]cnc2[nH]1
8. CC(C)(C)c1cc([N+](=O)[O-])cc([N+](=O)[O-])c1O

10.3
9.67
4.78
6.61
9.2
9.03
2.69
13.9

List reported LC retention time for each of these compounds:
1. c1ccc2[nH]c(-c3cscn3)nc2c1
2. O=C1CN(N=Cc2ccc([N+](=O)[O-])o2)C(=O)N1
3. CCC(C)(C)C(=O)OC1CC(C)C=C2C=CC(C)C(CCC3CC(O)CC(=O)O3)C21 (centres undefined)
4. CCCC[N+]1(C)CCCCC1

1: 5.2; 2: 6.22; 3: 15.4; 4: 4.66

List reported LC retention time for each of these compounds:
1. CN(C)c1ccc(-c2nc3ccccc3[nH]2)cc1
2. CC12CCC3C4CCC(=O)C=C4CCC3C1CCC2O (centres undefined)
3. CNCC(O)c1cccc(O)c1 (centres undefined)
4. CCOC(=O)C(CCc1ccccc1)NC(C)C(=O)N1C(C(=O)O)CC2CCCC21 (centres undefined)
5. CC[N+](CC)(CC)Cc1ccccc1
6. O=C(O)c1ccccc1O
7. COC(=O)C(=Cc1ccc(OC)cc1)C(=O)OC
8. Cc1ccnc(NS(=O)(=O)c2ccc(N)cc2)n1

6.52
10.4
2.73
7.85
5.09
7.89
11
5.77

* * *

# assay notes: RP, Agilent ZORBAX Eclipse Plus C18, 150 × 2.1 mm, 3.5 µm, 40 °C, 0.3 mL/min, estimated dead time 1.1 min; A: water + 0.1% formic acid; B: acetonitrile + 0.1% formic acid; gradient (min/%B) 0/2 1/2 2/20 16.5/98 22/98
# run conditions: stereoisomer not certain
observation type: LC retention time

Would you please look over these solved cases?
CC12CC3CC(C)(C1)CC(N)(C3)C2 :: 6.65 min
CN(C)C(=N)N=C(N)N :: 1.52 min
O=C(O)c1ccc(-c2ccccc2-c2nn[nH]n2)cc1 :: 8.03 min
CCCCP(=O)(CCCC)CCCC :: 11.1 min
c1ccc(-c2nc3ccccc3[nH]2)cc1 :: 5.9 min

List reported LC retention time for each of these molecules:
1. CN(CC=CC#CC(C)(C)C)Cc1cccc2ccccc12
2. S=P(c1ccccc1)(c1ccccc1)c1ccccc1

1. 9.65 min
2. 14.5 min

* * *

# assay notes: RP, Agilent ZORBAX Eclipse Plus C18, 150 × 2.1 mm, 3.5 µm, 40 °C, 0.3 mL/min, estimated dead time 1.1 min; A: water + 0.1% formic acid; B: acetonitrile + 0.1% formic acid; gradient (min/%B) 0/2 1/2 2/20 16.5/98 22/98
# run conditions: stereoisomer not certain
Give LC retention time for every item shown.
One number for each entry, in min.

Would you please look over these solved cases?
Nc1ccc(O)c(C(=O)O)c1 :: 2.18
CCCCOP(=O)(O)OCCCC :: 8.01
COc1ccc2nc(SCc3ncc(C(=O)O)c(OC)c3C)[nH]c2c1 :: 5.75

List reported LC retention time for each of these molecules:
1. NCC(O)COc1ccccc1 (stereo not drawn)
2. NCC1(CC(=O)O)CCCCC1
3. CC(=O)Nc1ccc(OC2OC(C(=O)O)C(O)C(O)C2O)cc1 (stereo not drawn)
4. COc1ccc(C(CN(C)C)C2(O)CCCCC2)cc1 (stereo not drawn)
5. c1ccc([P+](CCC2OCCCO2)(c2ccccc2)c2ccccc2)cc1
6. CC1=CC(C)(C)Nc2ccccc21

[4.75, 4.88, 4.58, 6.63, 7.98, 12.5]

List reported LC retention time for each of these molecules:
1. O=C(O)c1ccccc1
2. CCCC[N+]1(C)CCCC1
3. CCOP(=S)(OCC)Oc1ccc([N+](=O)[O-])cc1
4. CC12CCC3c4ccc(O)cc4CCC3C1CCC2O (stereo not drawn)

[7.56, 4.27, 14.1, 10.4]

* * *

# assay notes: RP, Agilent ZORBAX Eclipse Plus C18, 150 × 2.1 mm, 3.5 µm, 40 °C, 0.3 mL/min, estimated dead time 1.1 min; A: water + 0.1% formic acid; B: acetonitrile + 0.1% formic acid; gradient (min/%B) 0/2 1/2 2/20 16.5/98 22/98
# run conditions: stereoisomer not certain
LC retention time vs 8 min: at or above is Yes, below is No.

CCNc1nc(N)[nH]c(=O)n1 :: No
c1ccc([P+](c2ccccc2)(c2ccccc2)c2ccccc2)cc1 :: Yes
O=c1[nH]sc2ccccc12 :: No
CC(=O)C[P+](c1ccccc1)(c1ccccc1)c1ccccc1 :: No
CCC(C)C1OC2(C=CC1C)CC1CC(CC=C(C)C(OC3CC(OC)C(OC4CC(OC)C(NC(C)=O)C(C)O4)C(C)O3)C(C)C=CC=C3COC4C(O)C(C)=CC(C(=O)O1)C34O)O2 (configuration not stated) :: Yes

Given the entry CC1c2cccc(O)c2C(O)=C2C(=O)C3(O)C(O)=C(C(N)=O)C(=O)C(N(C)C)C3C(O)C21 (configuration not stated) , answer whether its LC retention time meets or surpasses 8 min.
No

Also, `O=c1c2ccccc2[nH]c2ccccc12` please.
Yes

Also, `CN(CC=CC#CC(C)(C)C(=O)O)Cc1cccc2ccccc12` please.
No

Also, CN1CCN2c3ncccc3Cc3ccccc3C2C1 (configuration not stated) please.
No

Also, `CSc1nc(N)nc2nc[nH]c12` please.
No

Also, `Cc1cc(NS(=O)(=O)c2ccc(NO)cc2)no1` please.
No

Also, `CCNC(=O)NC1CCCCC1` please.
No

Also, `Cc1ccc(NC(=O)c2ccc(CN3CCN(C)CC3)cc2)cc1Nc1nccc(-c2cccnc2)n1` please.
No

Also, CCOC(=O)C1=C(C)NC(C)=C(C(=O)OC)C1c1cccc([N+](=O)[O-])c1 (configuration not stated) please.
Yes

Also, `CCOC(=O)Nc1ccc(C)c(NC(=O)OCC)c1` please.
Yes

Also, CC12CCC3c4ccc(O)cc4CCC3C1CC(O)C2=O (configuration not stated) please.
Yes

Also, `O=S(=O)(O)c1ccc2nc(-c3ccccc3)[nH]c2c1` please.
No

Also, `O=C1OCCOC(=O)c2ccc(cc2)C(=O)OCCOC(=O)c2ccc(cc2)C(=O)OCCOC(=O)c2ccc1cc2` please.
Yes

Also, `COc1ccc(-c2coc3cc(O)ccc3c2=O)cc1` please.
Yes

Also, `C=C(OCC)[P+](c1ccccc1)(c1ccccc1)c1ccccc1` please.
Yes

Also, `OC(c1ccccc1)(c1ccccc1)C1CCNCC1` please.
No

This collection of values is drawn from the RepoRT retention time repository (doi:10.1016/j.chroma.2015.11.014).
